Answer each item with its documented Papp B→A at 90 min, 10 μM.
test: in vitro; conditions: human, Caco-2, pH 7.4

# get_value(readout='Papp B→A at 90 min, 10 μM', item= Cn1c(CN(CCC(N)=O)[C@H]2CCCc3cccnc32)nc2ccccc21 )
> 10 ×10⁻⁶ cm/s

Which Papp B→A at 90 min, 10 μM value belongs to c1cnc2c(c1)CCC[C@@H]2N(CCC1CCCCO1)Cc1nc2ccccc2[nH]1 (stereo partly drawn) ?
> 10 ×10⁻⁶ cm/s

Item CC(c1ccccn1)N(CCc1ccccn1)Cc1nc2ccccc2[nH]1 (stereo not drawn) has what recorded Papp B→A at 90 min, 10 μM?
> 10 ×10⁻⁶ cm/s

* * *

For each entry below, report its pIC50 value.
biological target: Jurkat cells expressing CXCR4 (Homo sapiens, UniProt P61073); construct: Jurkat cells expressing CXCR4; endogenous in cells; assay: Chemokine (CXCL12-AF647) binding inhibition assay; settings: CXCL12-AF647 25 ng/mL, read-out: IC50 CXCL-12 binding Jurkat
Sequence (P61073 whole entry): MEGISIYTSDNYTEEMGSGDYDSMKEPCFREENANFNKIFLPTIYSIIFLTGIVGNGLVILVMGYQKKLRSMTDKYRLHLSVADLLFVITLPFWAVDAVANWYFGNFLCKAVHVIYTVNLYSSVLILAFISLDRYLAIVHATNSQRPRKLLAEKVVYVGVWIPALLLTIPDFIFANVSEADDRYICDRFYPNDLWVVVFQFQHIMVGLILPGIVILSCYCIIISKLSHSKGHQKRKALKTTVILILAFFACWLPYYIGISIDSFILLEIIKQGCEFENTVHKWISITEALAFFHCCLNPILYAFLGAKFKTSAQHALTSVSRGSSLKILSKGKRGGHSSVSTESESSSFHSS
pIC50: −log10 of the molar value.

For the compound shown here, Clc1cccnc1CN(CCc1cnc[nH]1)Cc1ncccc1-c1ccccc1 , give the reported pIC50.
7.00 to 11.00

Which pIC50 value is on record for CC(c1ccccn1)N(CCC(N)=O)Cc1ccccn1 (stereo not drawn) ?
6.00 to 7.00

Value lookup for pIC50; key = CC(C)c1cccnc1CN(CCC(N)=O)[C@H]1CCCc2cccnc21
7.00 to 11.00

Looking for the measured pIC50 of Cc1cccnc1CN(CCc1c[nH]cn1)[C@H]1CCCc2cccnc21 , can you help?
7.00 to 11.00

// pIC50 lookup, key: Cc1cccnc1CN(CCc1ccccn1)C(C)c1ccccn1 (stereo not drawn)
7.00 to 11.00

Look up pIC50 for this compound: OCCCN(Cc1nc2ccccc2[nH]1)[C@H]1CCCc2cccnc21
7.00 to 11.00

Can you look up the measured pIC50 of CC(C)c1cccnc1CN(CCC(N)=O)Cc1ncccc1-c1ccccc1 for me?
6.00 to 7.00

// returns reported pIC50 for input Clc1cccnc1CN(CCc1cnc[nH]1)Cc1nccs1
6.00 to 7.00

GET /values?readout=pIC50&item= OCCN(Cc1nc2ccccc2[nH]1)[C@H]1CCCc2cccnc21
6.00 to 7.00

* * *

Kindly supply the reported efflux ratio at 90 min, 10 μM values for the records listed here.
experiment: in vitro; conditions: human, Caco-2, pH 7.4

Look up efflux ratio at 90 min, 10 μM: Cc1cccnc1CN(CCc1cnc[nH]1)Cc1ncccc1Cl [Compound I-10]
0.1 to 10

Requested field: efflux ratio at 90 min, 10 μM. Item: COc1ccnc(CCN(Cc2ncccc2C)Cc2ncccc2C)c1 [Compound I-33]
0.1 to 10

# lookup: efflux ratio at 90 min, 10 μM of CC(C)c1cccnc1CN(CCC(N)=O)[C@H]1CCCc2cccnc21 [Compound I-48]
0.1 to 10

Looking for the measured efflux ratio at 90 min, 10 μM of CC(C)c1cccnc1CN(CCc1cnc[nH]1)Cc1ncccc1Cl [Compound I-35] , can you help?
0.1 to 10

Fill in: efflux ratio at 90 min, 10 μM of CC(c1ccccn1)N(CCc1cnc[nH]1)Cc1nc2ccccc2[nH]1 (centres unmarked) [Compound I-7] is ___
> 30

* * *

Give pIC50 for every item shown.
target: Jurkat cells expressing CXCR4 (Homo sapiens); construct: Jurkat cells expressing CXCR4; endogenous in cells; assay: Chemokine (CXCL12-AF647) binding inhibition assay; conditions: CXCL12-AF647 25 ng/mL, read-out: IC50 CXCL-12 binding Jurkat
pIC50: −log10 of the molar value.

What does the record list as pIC50 for Cc1cccnc1CN(CCC(N)=O)Cc1ncccc1Cl [Compound I-15] ?
6.00 to 7.00

Which measured pIC50 value corresponds to Cn1c(CN(CCc2c[nH]cn2)[C@H]2CCCc3cccnc32)nc2cc(F)ccc21 [Compound I-45] ?
7.00 to 11.00

Endpoint output: pIC50 of Cc1cccnc1CN(CCc1c[nH]cn1)Cc1nccs1 [Compound I-52] . Value?
6.00 to 7.00

* * *

Target: CXCR-4 transfected U87 cell line (U87.CXCR4) (Homo sapiens)
Sequence (P61073 whole entry): as above
Assay: Intracellular CXCL-12-induced calcium mobilization assay (FLIPR)
Details: U87.CXCR4 cells; CXCL-12 25-50 ng/mL; compounds added 15 minutes before; read-out: IC50 CXCL-12 Ca2+ flux U87.CXCR4+
Experimental: Intracellular calcium mobilization induced by chemokines orchemokine-derived peptides were evaluated using a calcium responsive fluorescent probe and a FLIPR system. […] The intracellular calcium mobilization induced by the CXCL-12 (25-50 ng/mL) was then measured at 37° C. by monitoring the fluorescence as a function of time in all the wells simultaneously using a fluorometric imaging plate reader (FLIPR Tetra, Molecular Devices).
pIC50: −log10 of the molar value.
Please provide measured pIC50 for the entries that follow.

For the molecule shown here, Cc1cccnc1CN(CCc1ccccn1)Cc1ncccc1C [Compound I-4] , give the reported pIC50.
6.00 to 7.00

Endpoint output: pIC50 of Cn1c(CN(CCc2c[nH]cn2)[C@H]2CCCc3cccnc32)nc2cccc(F)c21 [Compound I-44] . Value?
7.00 to 11.00

State the recorded pIC50 for this entry: Clc1cccnc1CN(CCc1cnc[nH]1)Cc1ncccc1-c1ccccc1 [Compound I-39]
≤ 6.00

Would you mind telling me what pIC50 value was observed for COc1ccc(CCN(Cc2ncccc2C)Cc2ncccc2C)nc1 [Compound I-32] ?
≤ 6.00

What value of pIC50 has been reported for the following molecule? CC(c1ccccn1)N(CCc1ccccn1)Cc1nc2ccccc2[nH]1 (stereo not shown) [Compound I-2]
7.00 to 11.00

What does the data say about its pIC50? Entry: Cc1cccnc1CN(CCc1cnc[nH]1)Cc1ncccc1-c1ccccc1 [Compound I-57]
6.00 to 7.00

Record request: pIC50 value, item COc1cccnc1CCN(Cc1ncccc1C)Cc1ncccc1C [Compound I-56]
≤ 6.00

Look up pIC50: c1cnc2c(c1)CCC[C@@H]2N(CCC1CCCCO1)Cc1nc2ccccc2[nH]1 (stereo partly shown) [Compound I-16]
≤ 6.00

Data request, read-out pIC50, for NC(=O)CCN(Cc1ncccc1-c1ccccc1)[C@H]1CCCc2cccnc21 [Compound I-51]
≤ 6.00

Sample Cc1cccnc1CN(CCc1c[nH]cn1)Cc1nc2cc(F)ccc2n1C [Compound I-42] — what was its pIC50?
≤ 6.00

Fill in the blank: the reported pIC50 of NC(=O)CCN(Cc1nc2ccccc2[nH]1)[C@H]1CCCc2cccnc21 [Compound I-21] is ____.
6.00 to 7.00

Consider the molecule shown here: CC(c1ccccn1)N(CCC(N)=O)Cc1nc2ccccc2[nH]1 (stereo not shown) [Compound I-12] What is its recorded pIC50?
≤ 6.00

I'd like to know its pIC50. The molecule in question is Cc1cccnc1CN(CCc1cnc[nH]1)Cc1ncccc1C(C)C [Compound I-34]
6.00 to 7.00

Which measured pIC50 value corresponds to Cc1cccnc1CN(CCc1cnc[nH]1)Cc1ncccc1C [Compound I-9] ?
7.00 to 11.00

Bench note: what pIC50 did Cc1cccnc1CN(CCc1c[nH]cn1)Cc1nc2cccc(F)c2n1C [Compound I-40] show?
≤ 6.00

Look up pIC50: Clc1cccnc1CN(CCc1cnc[nH]1)Cc1nccc2ccccc12 [Compound I-37]
7.00 to 11.00

Fill in: pIC50 of Cc1cccnc1CN(CCC(N)=O)Cc1ncccc1C [Compound I-14] is ___
≤ 6.00

What pIC50 value was documented for this molecule, Cc1cccnc1CN(CCc1cnc[nH]1)C(C)c1ccccn1 (stereo not shown) [Compound I-8] ?
≤ 6.00

Fill blank: measured pIC50 of the molecule COCCCN(Cc1nc2ccccc2[nH]1)[C@H]1CCCc2cccnc21 [Compound I-18] is ____.
6.00 to 7.00

* * *

Would you kindly list efflux ratio at 90 min, 10 μM for each of these molecules?
assay: in vitro; settings: human, Caco-2, pH 7.4

So what's the measured efflux ratio at 90 min, 10 μM for this one? COc1ccc(CCN(Cc2ncccc2C)Cc2ncccc2C)nc1
0.1 to 10

So what's the measured efflux ratio at 90 min, 10 μM for this one? COc1cccc(CCN(Cc2ncccc2C)Cc2ncccc2C)n1
0.1 to 10

# lookup: efflux ratio at 90 min, 10 μM of Cc1cccnc1CN(CCc1ccccn1)Cc1ncccc1Cl
0.1 to 10

Any idea what its efflux ratio at 90 min, 10 μM is? The molecule is Cc1cccnc1CN(CCc1cnc[nH]1)Cc1ncccc1-c1ccccc1
0.1 to 10

Requested read-out: efflux ratio at 90 min, 10 μM. Entry: Cc1cccnc1CN(CCC(N)=O)[C@H]1CCCc2cccnc21
10 to 30

Fill in the blank: the reported efflux ratio at 90 min, 10 μM of OCCN(Cc1nc2ccccc2[nH]1)[C@H]1CCCc2cccnc21 is ____.
0.1 to 10

Request the reported efflux ratio at 90 min, 10 μM associated with Cc1cccnc1CN(CCc1c[nH]cn1)[C@H]1CCCc2cccnc21
10 to 30

If you can, please state the reported efflux ratio at 90 min, 10 μM value of Cc1cccnc1CN(CCC(N)=O)Cc1ncccc1Cl .
0.1 to 10
